B1: FCHO1 (parent)
chain: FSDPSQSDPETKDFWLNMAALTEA

- Variants of: B1
- protocol notes: protein stability index of a GFP-peptide fusion (GPS, HEK-293T) (PSI 1-6); higher = more stable;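 also: lentivirally expressed fusions sorted by FACS into six bins by GFP to DsRed ratio, PSI derived from sequencing read proportions per bin multiplied by bin number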
- recorded conditions: c terminus: a fixed tail appended
Label rule, in plain words: protein stability index of 3 and up is Y, under 3 is N.

[
  {
    "changes": "A24T",
    "label class": "N"
  },
  {
    "changes": "T11Q",
    "label class": "Y"
  },
  {
    "changes": "S2L",
    "label class": "N"
  },
  {
    "changes": "A24P",
    "label class": "N"
  },
  {
    "changes": "E10K",
    "label class": "N"
  },
  {
    "changes": "S7H",
    "label class": "Y"
  },
  {
    "changes": "K12E",
    "label class": "Y"
  },
  {
    "changes": "D3Y",
    "label class": "N"
  },
  {
    "changes": "A19T",
    "label class": "N"
  },
  {
    "changes": "F14P",
    "label class": "Y"
  },
  {
    "changes": "A19W",
    "label class": "N"
  },
  {
    "changes": "M18C",
    "label class": "N"
  },
  {
    "changes": "D3K",
    "label class": "N"
  },
  {
    "changes": "P9G",
    "label class": "N"
  },
  {
    "changes": "L16Y",
    "label class": "N"
  },
  {
    "changes": "S7K",
    "label class": "N"
  },
  {
    "changes": "S2H",
    "label class": "N"
  },
  {
    "changes": "L21H",
    "label class": "N"
  },
  {
    "changes": "T11K",
    "label class": "N"
  },
  {
    "changes": "L16Q",
    "label class": "Y"
  },
  {
    "changes": "E10I",
    "label class": "N"
  },
  {
    "changes": "D13E",
    "label class": "Y"
  },
  {
    "changes": "K12V",
    "label class": "N"
  },
  {
    "changes": "L21Q",
    "label class": "Y"
  },
  {
    "changes": "L21V",
    "label class": "N"
  },
  {
    "changes": "N17I",
    "label class": "N"
  },
  {
    "changes": "L16E",
    "label class": "Y"
  },
  {
    "changes": "D8G",
    "label class": "N"
  },
  {
    "changes": "S2R",
    "label class": "Y"
  },
  {
    "changes": "L16S",
    "label class": "N"
  },
  {
    "changes": "A19F",
    "label class": "N"
  },
  {
    "changes": "L16W",
    "label class": "N"
  },
  {
    "changes": "S5R",
    "label class": "N"
  },
  {
    "changes": "L21C",
    "label class": "N"
  },
  {
    "changes": "M18H",
    "label class": "Y"
  },
  {
    "changes": "F14E",
    "label class": "Y"
  },
  {
    "changes": "P9E",
    "label class": "Y"
  },
  {
    "changes": "E23S",
    "label class": "N"
  },
  {
    "changes": "D8C",
    "label class": "N"
  },
  {
    "changes": "D8E",
    "label class": "Y"
  },
  {
    "changes": "S5Q",
    "label class": "Y"
  }
]
